- Organism: Cavia porcellus
- assay: The compound was tested for inhibition of electrically evoked muscle contractions in isolated longitudinal guinea pig ileum muscle
- Type: functional
quantity name: pEC50
Keep in mind that pEC50 stands for -log10 of concentration in molar terms.

These recorded examples may help you get a feel for the data.
{"compound string": "NC[C@H](CC(=O)O)c1ccc(Cl)cc1", "data value": 4.96}
{"compound string": "NCC[C@@H](CC(=O)O)c1ccc(Cl)cc1", "data value": 3.51}
{"compound string": "NC[C@@H](CC(=O)O)c1ccc(Cl)cc1", "data value": 2.48}

Field: next molecule
Exercise: Param item = `NCC[C@H](CC(=O)O)c1ccc(Cl)cc1` ; retrieve measured pEC50.
Solution: 4.96
